Target system: ABCG2 (Homo sapiens, UniProt Q9UNQ0)
Experimental details: Inhibition of human ABCG2 expressed in MDCK2 cells co-expressing GFP preincubated for 15 mins followed by pheophorbideA addition and measured after 2 hrs by flow cytometric analysis relative to control
Format: cell-based, MDCK-II
Condition description: probe pheophorbide A, read-out: Imax
Catalogue of Emax at 2 h readings, one per entry.
Value type: Emax at 2 h (%)

Cc1cc(Nc2ccc([N+](=O)[O-])cc2)nc(-c2ccccc2)n1 = 67
Cc1cc(Nc2ccc(C#N)c(Br)c2)nc(-c2ccccc2)n1 = 40
Cc1cc(Nc2ccc([N+](=O)[O-])c(Cl)c2)nc(-c2ccccc2)n1 = 86
Cc1cc(Nc2ccc3c(c2)C(=O)NC3=O)nc(-c2ccccc2)n1 = 101
Cc1cc(Nc2ccc(F)c([N+](=O)[O-])c2)nc(-c2ccccc2)n1 = 100
Cc1cc(Nc2ccc(C#N)c(C)c2)nc(-c2ccccc2)n1 = 76
Cc1cc(Nc2ccc(F)c(C#N)c2)nc(-c2ccccc2)n1 = 59
Cc1cc(Nc2ccc(CC#N)cc2)nc(-c2ccccc2)n1 = 100
Cc1cc(Nc2ccc3c(c2)OCCO3)nc(-c2ccccc2)n1 = 100
Cc1cc(Nc2cccc(Br)c2)nc(-c2ccccc2)n1 = 83
Cc1cc(Nc2cccc(CO)c2)nc(-c2ccccc2)n1 = 100

---

Experimental details: Cytotoxicity against human A2780/ADR cells over expressing ABCB1 assessed as reduction in cell viability after 72 hrs by MTT assay
Type: ADME, cell-based
Condition description: A2780/ADR cells overexpressing ABCB1
Value type: GI50 at 72 h (µM)

Cc1cc(Nc2ccc3ncccc3c2)nc(-c2ccccc2)n1 = 28.9

---

Target system: Broad substrate specificity ATP-binding cassette transporter ABCG2 (Homo sapiens, UniProt Q9UNQ0)
Experimental details: Inhibition of human ABCG2 expressed in MDCK2 cells co-expressing GFP preincubated for 15 mins followed by pheophorbideA addition and measured after 2 hrs by flow cytometric analysis
Assay type: cell-based, MDCK-II
For each record, check the reported IC50: if it is below 300 nM write T, else write F.

Cc1cc(Nc2ccc3c(c2)OCCO3)nc(-c2ccccc2)n1 = F
Cc1cc(Nc2ccc([N+](=O)[O-])c(Cl)c2)nc(-c2ccccc2)n1 = T
Cc1cc(Nc2cccc(Br)c2)nc(-c2ccccc2)n1 = F
COc1cc(Nc2cc(C)nc(-c3ccccc3)n2)ccc1Br = F
Cc1cc(Nc2ccc(F)c(C#N)c2)nc(-c2ccccc2)n1 = T
Cc1cc(Nc2ccc(F)c([N+](=O)[O-])c2)nc(-c2ccccc2)n1 = F
Cc1cc(Nc2ccc3ncccc3c2)nc(-c2ccccc2)n1 = T
COc1cccc(Nc2cc(C)nc(-c3ccccc3)n2)c1 = F
Cc1cc(Nc2ccc(C#N)c(C)c2)nc(-c2ccccc2)n1 = T
Cc1cc(Nc2cccc(Cl)c2)nc(-c2ccccc2)n1 = F
COc1ccc(Nc2cc(C)nc(-c3ccccc3)n2)cc1C(F)(F)F = F

---

Experimental details: Cytotoxicity against human A2780 cells assessed as reduction in cell viability after 72 hrs by MTT assay
Value type: GI50 at 72 h (µM)

Cc1cc(Nc2ccc3ncccc3c2)nc(-c2ccccc2)n1 = 22.6

---

Target system: ABCG2 (Homo sapiens)
Sequence (Q9UNQ0 whole entry): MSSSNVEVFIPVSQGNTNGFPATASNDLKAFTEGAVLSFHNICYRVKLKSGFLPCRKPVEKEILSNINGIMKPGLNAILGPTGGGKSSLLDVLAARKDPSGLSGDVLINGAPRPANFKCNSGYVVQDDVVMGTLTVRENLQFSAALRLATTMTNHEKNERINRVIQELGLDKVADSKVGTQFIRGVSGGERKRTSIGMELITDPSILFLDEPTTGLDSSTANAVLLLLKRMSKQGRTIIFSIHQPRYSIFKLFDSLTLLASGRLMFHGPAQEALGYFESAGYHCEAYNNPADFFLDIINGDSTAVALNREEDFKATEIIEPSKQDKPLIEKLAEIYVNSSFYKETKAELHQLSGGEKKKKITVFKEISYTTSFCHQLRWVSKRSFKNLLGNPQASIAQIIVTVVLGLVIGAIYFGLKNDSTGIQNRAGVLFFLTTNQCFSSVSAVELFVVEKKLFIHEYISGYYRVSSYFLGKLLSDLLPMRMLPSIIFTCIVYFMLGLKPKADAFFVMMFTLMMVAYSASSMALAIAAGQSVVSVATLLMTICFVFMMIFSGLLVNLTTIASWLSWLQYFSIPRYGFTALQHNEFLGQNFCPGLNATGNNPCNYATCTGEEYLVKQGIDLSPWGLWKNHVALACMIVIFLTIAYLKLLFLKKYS
Experimental details: Inhibition of human ABCG2 expressed in MDCK2 cells co-expressing GFP preincubated for 15 mins followed by pheophorbideA addition and measured after 2 hrs by flow cytometric analysis relative to control
Assay type: cell-based, MDCK-II
Condition description: probe pheophorbide A, read-out: Imax
Catalogue of Emax at 2 h readings, one per entry.
Value type: Emax at 2 h (%)

COc1cc(Nc2cc(C)nc(-c3ccccc3)n2)ccc1Br = 53
Cc1cc(Nc2ccc(C#N)c(C#N)c2)nc(-c2ccccc2)n1 = 100
Cc1cc(Nc2cccc(F)c2)nc(-c2ccccc2)n1 = 100
Cc1cc(Nc2cccc([N+](=O)[O-])c2)nc(-c2ccccc2)n1 = 68
COc1ccc(Nc2cc(C)nc(-c3ccccc3)n2)cc1C(F)(F)F = 83
Cc1cc(Nc2ccc3nccnc3c2)nc(-c2ccccc2)n1 = 100
COc1ccc(Nc2cc(C)nc(-c3ccccc3)n2)cc1F = 100
Cc1cc(Nc2ccc3ncccc3c2)nc(-c2ccccc2)n1 = 79
Cc1cc(Nc2ccc(C#N)c(C(F)(F)F)c2)nc(-c2ccccc2)n1 = 92
Cc1cc(Nc2cccc(Cl)c2)nc(-c2ccccc2)n1 = 100
COc1cccc(Nc2cc(C)nc(-c3ccccc3)n2)c1 = 100
Cc1cc(Nc2cccc(O)c2)nc(-c2ccccc2)n1 = 59
